Assayed System: T1, human tissue factor (TF) on human bladder carcinoma cells J82 (human, UniProt P13726 33-295)
T1 construct: whole, on cells; J82 is described as a TF-high expression cell line; also called the antigen; J82 (ATCC HTB-1)
T1 sequence (P13726 33-295): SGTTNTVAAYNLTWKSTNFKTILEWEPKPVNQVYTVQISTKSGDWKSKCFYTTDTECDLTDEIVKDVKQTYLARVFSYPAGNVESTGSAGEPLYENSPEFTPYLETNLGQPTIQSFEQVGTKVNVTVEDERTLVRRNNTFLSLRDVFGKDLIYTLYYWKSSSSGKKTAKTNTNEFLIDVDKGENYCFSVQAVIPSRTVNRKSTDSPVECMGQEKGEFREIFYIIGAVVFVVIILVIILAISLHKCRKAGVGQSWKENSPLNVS
Test Protocol: cell ELISA on fixed J82 cells
Quantity Measured: binding result

* H chain humanized version c/L chain chimeric antibody (antibody, V domains shown, Expressed from vector N5KG4P (IgG4-type, human Cgamma4 and Ckappa); also called c-ch; hHvc-chLv/N5KG4P) VH: QVQLLESGAVLARPGTSVKISCKASGFNIKDYYMHWVKQRPGQGLEWIGGNDPANGHSMYDPKFQGRVTMLVDTSKNQFSLRLSSVTAADTAVYYCARDSGYAMDYWGQGTLVTVSS VL: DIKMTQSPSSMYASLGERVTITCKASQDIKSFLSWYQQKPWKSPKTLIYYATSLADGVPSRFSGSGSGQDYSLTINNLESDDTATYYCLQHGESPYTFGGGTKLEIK | binds
* H chain humanized version i/L chain chimeric antibody (antibody, V domains shown, Expressed from vector N5KG4P (IgG4-type, human Cgamma4 and Ckappa); also called i-ch; hHvi-chLv/N5KG4P) VH: QVQLLESGAVLARPGTSVKISCKASGFNIKDYYMHWVKQRPGQGLEWIGGNDPANGHSMYDPKFQGRVTITADTSTSTVFMELSSLRSEDTAVYYCARDSGYAMDYWGQGTLVTVSS VL: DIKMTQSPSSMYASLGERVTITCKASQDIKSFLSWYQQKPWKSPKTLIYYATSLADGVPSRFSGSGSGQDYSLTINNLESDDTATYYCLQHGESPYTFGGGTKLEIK | binds
* H chain humanized version g/L chain humanized version b antibody (antibody, V domains shown, Expressed from vector N5KG4P (IgG4-type, human Cgamma4 and Ckappa); also called g-b; hHvg-hLvb/N5KG4P) VH: QVQLLESGAVLARPGTSVKISCKASGFNIKDYYMHWVKQRPGQGLEWIGGNDPANGHSMYDPKFQGKATLTADESSSTAYMQLSSLRSEDSAVYSCARDSGYAMDYWGQGTLVTVSS VL: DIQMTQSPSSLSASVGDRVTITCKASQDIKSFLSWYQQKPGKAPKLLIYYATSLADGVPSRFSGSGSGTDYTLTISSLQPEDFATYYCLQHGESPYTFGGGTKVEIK | binds
